Biological target: T1, cGMP-dependent protein kinase II (PKGII), recombinant (UniProt Q13237 1-762)
T1 construct: cGMP-dependent protein kinase II; also called cGK2; source: insect cell cultures, Bacmid baculovirus expression system, purified to apparent homogeneity
T1 sequence (looked up): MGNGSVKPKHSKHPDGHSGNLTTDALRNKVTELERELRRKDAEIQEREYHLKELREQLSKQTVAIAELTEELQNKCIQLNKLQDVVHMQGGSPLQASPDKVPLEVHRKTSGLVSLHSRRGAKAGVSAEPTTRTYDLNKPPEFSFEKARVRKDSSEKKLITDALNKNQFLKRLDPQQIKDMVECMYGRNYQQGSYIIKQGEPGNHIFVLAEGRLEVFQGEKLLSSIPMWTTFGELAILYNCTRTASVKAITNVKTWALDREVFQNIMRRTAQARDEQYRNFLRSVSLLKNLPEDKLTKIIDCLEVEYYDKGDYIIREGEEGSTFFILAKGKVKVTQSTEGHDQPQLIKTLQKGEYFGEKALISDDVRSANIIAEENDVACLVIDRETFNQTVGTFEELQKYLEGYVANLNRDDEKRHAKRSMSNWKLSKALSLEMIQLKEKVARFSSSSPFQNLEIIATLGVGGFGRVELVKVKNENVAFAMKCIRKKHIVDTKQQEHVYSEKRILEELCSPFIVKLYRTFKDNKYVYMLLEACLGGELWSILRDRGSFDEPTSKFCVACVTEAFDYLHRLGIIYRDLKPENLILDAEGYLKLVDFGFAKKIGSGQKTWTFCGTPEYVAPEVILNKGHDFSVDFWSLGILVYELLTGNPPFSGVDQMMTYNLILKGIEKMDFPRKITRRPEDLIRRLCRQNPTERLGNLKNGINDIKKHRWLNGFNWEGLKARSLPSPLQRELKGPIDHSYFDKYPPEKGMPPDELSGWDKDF
Assay: kinase inhibition assay (Ki from enzyme kinetics); purified recombinant kinases with multiple concentrations of DT-2; saturating peptide substrate …; PKG isoforms activated with 1 μM cGMP; PKC activated with 50 μg/μL phospholipids and 100 ng/mL 12-O-tetradecanoylphorbol-13-acetate
Settings: both partners purified
attribute_measured: Ki (µM)
Report only the number, with the unit µM understood.

Query: Which Ki value is on record for YGRKKRRQRRRPPLRKKKKKH (also called peptide DT-2) [DT-2] ?
Result: 9.1
